The values you see were collected from BindingDB's records for doi:10.1016/j.chembiol.2006.06.007.

# reported pKd; entries follow
Target: UDP-galactopyranose mutase (Klebsiella pneumoniae)
Sequence (Q762K7 whole entry): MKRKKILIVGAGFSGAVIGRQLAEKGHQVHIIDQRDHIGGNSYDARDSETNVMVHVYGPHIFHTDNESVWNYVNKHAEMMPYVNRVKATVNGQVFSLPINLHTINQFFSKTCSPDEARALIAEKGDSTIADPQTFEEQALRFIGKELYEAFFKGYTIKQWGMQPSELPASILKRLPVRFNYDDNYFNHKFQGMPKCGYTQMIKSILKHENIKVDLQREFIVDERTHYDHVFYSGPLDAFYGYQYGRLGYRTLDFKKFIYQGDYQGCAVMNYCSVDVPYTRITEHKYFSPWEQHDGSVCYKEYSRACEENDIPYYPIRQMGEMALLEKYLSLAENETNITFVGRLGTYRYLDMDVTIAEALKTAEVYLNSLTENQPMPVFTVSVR
pKd: −log10 of the molar value.

Use the examples below as a reference point.
INSERT INTO measurements (molecule, study_system, value_type, observed_measurement) VALUES
  ('COc1cccc(/C=C2/SC(=S)N(C(Cc3ccccc3)C(=O)O)C2=O)c1 (configuration not stated) [Thiazolidinone core, 28]', 'UDP-galactopyranose mutase (Klebsiella pneumoniae)', 'pKd', '< 4.48'),
  ('O=C(O)C(Cc1ccc(O)cc1)N1C(=O)/C(=C\c2cccc(Br)c2)SC1=S (configuration not stated) [Thiazolidinone core, 17]', 'UDP-galactopyranose mutase (Klebsiella pneumoniae)', 'pKd', '< 4.95'),
  ('O=C(O)C(Cc1ccccc1)N1C(=O)/C(=C/c2cccc(Br)c2)SC1=S (configuration not stated) [Thiazolidinone core, 15]', 'UDP-galactopyranose mutase (Klebsiella pneumoniae)', 'pKd', '< 4.48'),
  ('CC(C(=O)O)N1C(=O)/C(=C\c2cccc(Br)c2)SC1=S (configuration not stated) [Thiazolidinone core, 16]', 'UDP-galactopyranose mutase (Klebsiella pneumoniae)', 'pKd', '< 4.48'),
  ('CCOC(=O)c1ccc(-c2ccc(/C=C3\C(=O)N(c4ccc(S(N)(=O)=O)cc4)N=C3C(F)(F)F)o2)cc1 [Pyrazol analog, 3]', 'UDP-galactopyranose mutase (Klebsiella pneumoniae)', 'pKd', 5.51),
  ('O=C(O)C(Cc1ccccc1)N1C(=O)/C(=C\c2cccc(F)c2)SC1=S (configuration not stated) [Thiazolidinone core, 23]', 'UDP-galactopyranose mutase (Klebsiella pneumoniae)', 'pKd', '< 4.48');

Attention now turns to another entry.
Send back UDP-galactopyranose mutase (Klebsiella pneumoniae) pKd of O=C(O)C(Cc1ccccc1)N1C(=O)/C(=C/c2cccc(Cl)c2)SC1=S (configuration not stated) [Thiazolidinone core, 21] only. 4.67

---

Parameter Kd: see the listing below.
Target: UDP-galactopyranose mutase (Mycobacterium tuberculosis (strain ATCC 25618 / H37Rv), UniProt P9WIQ1)
Sequence (P9WIQ1 whole entry): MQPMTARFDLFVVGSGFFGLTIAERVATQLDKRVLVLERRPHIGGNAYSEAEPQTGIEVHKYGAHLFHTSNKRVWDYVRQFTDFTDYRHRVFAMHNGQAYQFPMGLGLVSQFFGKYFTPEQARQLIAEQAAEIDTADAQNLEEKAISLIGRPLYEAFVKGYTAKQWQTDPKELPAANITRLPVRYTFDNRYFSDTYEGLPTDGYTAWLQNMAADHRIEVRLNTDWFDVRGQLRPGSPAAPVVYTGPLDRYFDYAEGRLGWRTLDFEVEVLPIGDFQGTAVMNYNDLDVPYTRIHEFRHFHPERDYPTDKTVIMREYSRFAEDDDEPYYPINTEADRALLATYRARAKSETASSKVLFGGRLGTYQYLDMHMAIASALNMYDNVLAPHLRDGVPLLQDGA
Test: High-throughput FP Assay
The figure you give is taken to be in µM; do not add the unit.

INSERT INTO results (compound, observed_measurement) VALUES
  ('O=C(O)c1cc(NC(=S)NCCCCCCOP(=O)(O)OP(=O)(O)OCC2OC(n3ccc(=O)[nH]c3=O)C(O)C2O)ccc1-c1c2ccc(=O)cc-2oc2cc(O)ccc12 (stereo not given) [Fluorescent Probe 1]', 0.16);

Specify reported Kd for the compound shown: O=C1c2cccc3c([N+](=O)[O-])ccc(c23)C(=O)N1Cc1cccnc1 [Pyridin analog, 11] 8

Give reported Kd value for O=C(O)C(Cc1ccccc1)N1C(=O)/C(=C/c2cccc(I)c2)SC1=S (stereo not given) [Thiazolidinone core, 22] 6

Query Kd for O=C(O)C(Cc1ccccc1)N1C(=O)/C(=C/c2cccc(Cl)c2)SC1=S (stereo not given) [Thiazolidinone core, 21] 16

For the compound O=C1Nc2ccc([N+](=O)[O-])cc2/C1=C1/SC(=S)N(C(Cc2ccccc2)C(=O)O)C1=O (stereo not given) [Thiazolidinone core, 30] , give its reported Kd. 10

Specify reported Kd for the compound shown: O=c1/c(=C/c2cc([N+](=O)[O-])c(O)cc2Cl)sc2nc3ccccc3n12 [Thiazolidinone core, 10] 5.3

Consider the compound O=C(O)[C@H](Cc1ccccc1)N1C(=O)/C(=C/c2ccc(Br)cc2)SC1=S [Thiazolidinone core, 24] and give its recorded Kd. 9.3

---

Recorded below: Kd, system UDP-galactopyranose mutase (Klebsiella pneumoniae).

Check out these entries, answers already filled in.
INSERT INTO measurements (compound, value_type, observed_measurement) VALUES
  ('O=C(O)[C@H](Cc1ccccc1)N1C(=O)/C(=C/c2ccc(Br)cc2)SC1=S', 'Kd', '> 33 µM'),
  ('O=C(O)C(Cc1ccccc1)N1C(=O)/C(=C\c2cccc(Br)c2)SC1=S (stereo unspecified)', 'Kd', '9.4 µM');

Enter Kd (test system UDP-galactopyranose mutase (Klebsiella pneumoniae)) for CC(C(=O)O)N1C(=O)/C(=C2/C(=O)Nc3ccccc32)SC1=S (stereo unspecified) > 33 µM

Write down the reported Kd (system: UDP-galactopyranose mutase (Klebsiella pneumoniae)) of O=C(O)c1cc(NC(=S)NCCCCCCOP(=O)(O)OP(=O)(O)OCC2OC(n3ccc(=O)[nH]c3=O)C(O)C2O)ccc1-c1c2ccc(=O)cc-2oc2cc(O)ccc12 (stereo unspecified) 0.1 µM

Please tell me the measured Kd for O=C(O)C(Cc1ccccc1)N1C(=O)/C(=C\c2ccccc2Br)SC1=S (stereo unspecified) ; system: UDP-galactopyranose mutase (Klebsiella pneumoniae). > 33 µM

Answer briefly: Kd recorded on UDP-galactopyranose mutase (Klebsiella pneumoniae) for O=C(O)CN1C(=O)/C(=C2/C(=O)Nc3ccccc32)SC1=S > 33 µM

---

Measurement record for UDP-galactopyranose mutase (Klebsiella pneumoniae, UniProt Q762K7); quantity recorded: pIC50.
The scale used: pIC50 is minus the common logarithm of the concentration in molar units.

INSERT INTO assay_data (compound, study_system, observed_measurement) VALUES
  ('O=C(O)C(Cc1ccccc1)N1C(=O)/C(=C\c2cccc(Br)c2)SC1=S (configuration not stated)', 'UDP-galactopyranose mutase (Klebsiella pneumoniae, UniProt Q762K7)', 5.80);

Note: attention shifts to another entry.
Please indicate pIC50 recorded for O=c1/c(=C/c2cc([N+](=O)[O-])c(O)cc2Cl)sc2nc3ccccc3n12 5.40

---

Biological target: UniProtKB Q762K7
Experiment: High-throughput FP Assay
Value Type: pKd
# pKd = -log10(concentration in molar units)

Some solved cases for reference:
INSERT INTO measurements (molecule, value_type, observed_measurement) VALUES
  ('O=C(O)C(Cc1ccccc1)N1C(=O)/C(=C/c2cccc(I)c2)SC1=S (configuration not stated)', 'pKd', 5.20),
  ('O=C1Nc2ccccc2/C1=C1/SC(=S)N(C(Cc2ccc(O)cc2)C(=O)O)C1=O (configuration not stated)', 'pKd', 4.85);

Answer with the recorded pKd for the molecule listed here: O=C1Nc2ccc([N+](=O)[O-])cc2/C1=C1/SC(=S)N(C(Cc2ccccc2)C(=O)O)C1=O (configuration not stated) 5.24

---

Biological target: UDP-galactopyranose mutase (Mycobacterium tuberculosis (strain ATCC 25618 / H37Rv))
Experiment: High-throughput FP Assay
Value Type: Kd

Take a look at these entries with their results.
INSERT INTO assay_data (compound, value_type, observed_measurement) VALUES
  ('O=C(O)C(Cc1ccccc1)N1C(=O)/C(=C/c2cccc(Br)c2)SC1=S (stereo unspecified)', 'Kd', '> 33 µM'),
  ('O=C(O)CN1C(=O)/C(=C2/C(=O)Nc3ccccc32)SC1=S', 'Kd', '> 330 µM'),
  ('O=C(O)C(Cc1ccccc1)N1C(=O)/C(=C\c2ccccc2)SC1=S (stereo unspecified)', 'Kd', '> 33 µM'),
  ('O=C(O)C(Cc1ccccc1)N1C(=O)/C(=C\c2cccc(Br)c2)SC1=S (stereo unspecified)', 'Kd', '12 µM'),
  ('Cc1cccc(/C=C2/SC(=S)N(C(Cc3ccccc3)C(=O)O)C2=O)c1 (stereo unspecified)', 'Kd', '> 33 µM');

With those in mind, consider the next compound.
Quickly give me recorded Kd for O=C1Nc2ccccc2/C1=C1/SC(=S)N(C(Cc2ccc(O)cc2)C(=O)O)C1=O (stereo unspecified) > 33 µM

---

Target: UDP-galactopyranose mutase (Mycobacterium tuberculosis (strain ATCC 25618 / H37Rv), UniProt P9WIQ1)
Assay: High-throughput FP Assay
Description: To access the ability of compounds to inhibit the catalytic activity of UGM, an HPLC assay was employed. Inhibition constants were determined by monitoring UGM activity at a single substrate concentration while varying inhibitor concentration.
Overview of recorded log10 of IC50 for various compounds
All values: base-10 log of IC50 in µM.

INSERT INTO measurements (compound, value_type, observed_measurement) VALUES
  ('O=C(O)[C@H](Cc1ccccc1)N1C(=O)/C(=C/c2ccc(Br)cc2)SC1=S', 'log10 of IC50', 1.54);

Quote log10 of IC50 reported for O=C(O)C(Cc1ccccc1)N1C(=O)/C(=C/c2cccc(Cl)c2)SC1=S (configuration not stated) please. 1.69

Consider the compound O=c1/c(=C/c2cc([N+](=O)[O-])c(O)cc2Cl)sc2nc3ccccc3n12 . State its measured log10 of IC50. -1.55

Tell me its log10 of IC50 given O=C(O)C(Cc1ccccc1)N1C(=O)/C(=C\c2cccc(Br)c2)SC1=S (configuration not stated) as the entry. 1.81

Identify measured log10 of IC50 associated with O=C(O)C(Cc1ccccc1)N1C(=O)/C(=C/c2cccc(I)c2)SC1=S (configuration not stated) 1.61

Let me know recorded log10 of IC50 for O=C(O)c1cc(NC(=S)NCCCCCCOP(=O)(O)OP(=O)(O)OCC2OC(n3ccc(=O)[nH]c3=O)C(O)C2O)ccc1-c1c2ccc(=O)cc-2oc2cc(O)ccc12 (configuration not stated) , thanks. 0.76
